assay: Protein binding in human; assay type: ADME, organism-based; conditions: in vivo, read-out: PB (converted)
READOUT LABEL: fraction unbound

- COMPOUND: "Cc1ccc(-n2nccn2)c(C(=O)N2CCCN(c3ncc4ccccc4n3)CC2)c1"
  fraction unbound: 0.024

Here is the next item to consider.
Requested field: fraction unbound. Item: Cc1ccc(-n2nccn2)c(C(=O)N2CC3CC(C2)N(c2ncc4ccccc4n2)C3)c1 (single isomer, unassigned; enantiomer B)
0.064

###

test: Ratio of drug level in brain to plasma in Sprague-Dawley rat at 2 mg/kg, iv after 30 mins; type: ADME, organism-based; parameters: dose 2 mg/kg, route intravenous
READOUT LABEL: Kp at 0.5 h
Note: the reply should be a number with no unit written.

- COMPOUND: "Cc1ccc(-n2nccn2)c(C(=O)N2CC3CC(C2)N(c2ncc4ccccc4n2)C3)c1 (single isomer, unassigned; enantiomer B)"
  Kp at 0.5 h: 0.8

Here is the next item to consider.
Requested field: Kp at 0.5 h. Item: Cc1ccc(-n2nccn2)c(C(=O)N2CCCN(c3ncc4ccccc4n3)CC2)c1
0.7

###

target: Orexin receptor type 2 (Homo sapiens, UniProt O43614); experiment: Antagonist activity at OX2 receptor assessed as inhibition of calcium flux by FLIPR assay
Sequence (O43614 whole entry): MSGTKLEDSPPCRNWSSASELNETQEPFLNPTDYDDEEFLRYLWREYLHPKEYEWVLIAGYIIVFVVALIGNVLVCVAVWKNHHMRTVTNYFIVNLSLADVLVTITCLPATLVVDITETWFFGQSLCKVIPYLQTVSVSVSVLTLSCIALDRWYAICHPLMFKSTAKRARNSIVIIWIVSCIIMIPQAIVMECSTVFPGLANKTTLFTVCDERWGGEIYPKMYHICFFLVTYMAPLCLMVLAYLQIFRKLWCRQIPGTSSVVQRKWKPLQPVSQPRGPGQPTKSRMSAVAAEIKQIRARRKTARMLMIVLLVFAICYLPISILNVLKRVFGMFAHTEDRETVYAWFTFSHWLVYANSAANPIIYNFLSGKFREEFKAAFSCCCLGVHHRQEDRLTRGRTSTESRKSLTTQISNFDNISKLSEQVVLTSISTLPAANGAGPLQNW
pIC50: −log10 of the molar value.
Record 1 whenever pIC50 is at 7 or higher; record -1 when lower.

The following molecules have reported results that may help.
- MOLECULE: "Cc1ccc(-n2nccn2)c(C(=O)N2CCCN(c3ncc4ccccc4n3)CC2)c1"
  TESTED SYSTEM: "Orexin receptor type 2 (Homo sapiens, UniProt O43614)"
  CATEGORY: 1
- MOLECULE: "Cc1ccc(-n2nccn2)c(C(=O)N2CCC3CC2CN3c2ncc3cc(F)ccc3n2)c1 (racemic)"
  TESTED SYSTEM: "Orexin receptor type 2 (Homo sapiens, UniProt O43614)"
  CATEGORY: -1
- MOLECULE: "Cc1ccc(-n2nccn2)c(C(=O)N2CC3CC(C2)N(c2ncc4ccccc4n2)C3)c1 (single isomer, unassigned; enantiomer B)"
  TESTED SYSTEM: "Orexin receptor type 2 (Homo sapiens, UniProt O43614)"
  CATEGORY: 1
- MOLECULE: "Cc1ccc(-n2nccn2)c(C(=O)N2CCCN(c3ncc4cc(F)ccc4n3)CC2)c1"
  TESTED SYSTEM: "Orexin receptor type 2 (Homo sapiens, UniProt O43614)"
  CATEGORY: 1
- MOLECULE: "Cc1ccc(-n2nccn2)c(C(=O)N2CC3CC2CCN3c2ncc3cc(F)ccc3n2)c1 (racemic)"
  TESTED SYSTEM: "Orexin receptor type 2 (Homo sapiens, UniProt O43614)"
  CATEGORY: -1

Given the entry Cc1ccc(-n2nccn2)c(C(=O)N2CC3CC(C2)N(c2ncc4ccccc4n2)C3)c1 (single isomer, unassigned; enantiomer A) , answer whether its pIC50 meets or surpasses 7.
-1

###

assay: Oral bioavailability in dog; type: ADME, organism-based, Canis lupus familiaris; conditions: in vivo
Listed next: entries and their corresponding bioavailability.
Numbers only; they are read as %.

- COMPOUND: "Cc1ccc(-n2nccn2)c(C(=O)N2CCCN(c3ncc4ccccc4n3)CC2)c1"
  bioavailability / %: 16

Requested field: bioavailability. Item: Cc1ccc(-n2nccn2)c(C(=O)N2CC3CC(C2)N(c2ncc4ccccc4n2)C3)c1 (single isomer, unassigned; enantiomer B)
8

###

Listed next: entries and their corresponding fraction unbound.
assay: Protein binding in rat; format: ADME, organism-based; conditions: in vivo, read-out: PB (converted)
Note: the reply should be a number with no unit written.

- COMPOUND: "Cc1ccc(-n2nccn2)c(C(=O)N2CC3CC(C2)N(c2ncc4ccccc4n2)C3)c1 (single isomer, unassigned; enantiomer B)"
  fraction unbound: 0.073

Here is the next item to consider.
Requested field: fraction unbound. Item: Cc1ccc(-n2nccn2)c(C(=O)N2CCCN(c3ncc4ccccc4n3)CC2)c1
0.029

###

Target: Orexin/Hypocretin receptor type 1 (Homo sapiens)
Sequence (O43613 whole entry): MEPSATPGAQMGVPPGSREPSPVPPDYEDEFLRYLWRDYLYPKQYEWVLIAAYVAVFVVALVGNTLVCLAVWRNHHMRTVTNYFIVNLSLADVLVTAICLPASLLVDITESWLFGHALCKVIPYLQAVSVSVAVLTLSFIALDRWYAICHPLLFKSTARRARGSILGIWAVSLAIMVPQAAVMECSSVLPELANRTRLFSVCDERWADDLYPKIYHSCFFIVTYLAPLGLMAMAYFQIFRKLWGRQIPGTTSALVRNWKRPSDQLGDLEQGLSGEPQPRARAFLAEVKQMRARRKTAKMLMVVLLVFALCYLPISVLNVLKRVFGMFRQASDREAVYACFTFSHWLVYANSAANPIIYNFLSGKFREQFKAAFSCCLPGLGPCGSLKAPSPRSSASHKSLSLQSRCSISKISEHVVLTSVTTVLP
Assay: Antagonist activity at OX1 receptor assessed as inhibition of calcium flux by FLIPR assay
Threshold-based label: IC50 under 0.04 µM gives MET, IC50 not under 0.04 µM gives NOT MET.

The following molecules have reported results that may help.
- MOLECULE: "Cc1ccc(-n2nccn2)c(C(=O)N2CC3CC2CN(c2ncc4ccccc4n2)C3)c1 (stereo not drawn)"
  CATEGORY: "NOT MET"
- MOLECULE: "Cc1ccc(-n2nccn2)c(C(=O)N2CCC3CC2CN3c2ncc3cc(F)ccc3n2)c1 (racemic)"
  CATEGORY: "NOT MET"
- MOLECULE: "Cc1ccc(-n2nccn2)c(C(=O)N2CCCN(c3ncc4ccccc4n3)CC2)c1"
  CATEGORY: "MET"
- MOLECULE: "Cc1ccc(-n2nccn2)c(C(=O)N2CCCN(c3ncc4cc(F)ccc4n3)CC2)c1"
  CATEGORY: "MET"
- MOLECULE: "Cc1ccc(-n2nccn2)c(C(=O)N2CC3CC(C2)N(c2ncc4ccccc4n2)C3)c1 (racemic)"
  CATEGORY: "NOT MET"

Is IC50 strictly under 0.04 µM for the entry Cc1ccc(-n2nccn2)c(C(=O)N2CC3CC2CCN3c2ncc3cc(F)ccc3n2)c1 (racemic) ?
NOT MET

// query: Cc1ccc(-n2nccn2)c(C(=O)N2CC3CC(C2)N(c2ncc4ccccc4n2)C3)c1 (single isomer, unassigned; enantiomer B)
MET

// query: Cc1ccc(-n2nccn2)c(C(=O)N2CC3CC(C2)N(c2ncc4ccccc4n2)C3)c1 (single isomer, unassigned; enantiomer A)
NOT MET

###

experiment: Oral bioavailability in rat at 10 mg/kg; assay type: ADME, organism-based; conditions: in vivo
Listed next: entries and their corresponding bioavailability.
Numbers only; they are read as %.

- COMPOUND: "Cc1ccc(-n2nccn2)c(C(=O)N2CC3CC(C2)N(c2ncc4ccccc4n2)C3)c1 (single isomer, unassigned; enantiomer B)"
  bioavailability [%]: 2

Here is the next item to consider.
Requested field: bioavailability. Item: Cc1ccc(-n2nccn2)c(C(=O)N2CCCN(c3ncc4ccccc4n3)CC2)c1
2
